We begin with a simple list: items and their reported apparent KD of MS2 coat protein.
# System: MS2 coat protein
# experimentSummary: apparent KD of MS2 coat protein; designed switch direction (-1 OFF switch, 1 ON switch): 1; higher = weaker reporter binding
# conditionSummary: input ligand: none
Unit µM implied. Number only.

orderedResidues	apparent KD of MS2 coat protein (µM)
GCGAGGAUAUGCAGAGGAUCACCCUGUAGAAGGCGCAAAAGCGAGGAUAUGCAGAGGAUCACCCUGUAGAAGGCGCACUACUCU [pwkr ssNG3 DX 2xF5 +2xFMN.4] (Eterna round: R96, puzzle: Same State NG 3)	0.221

Turning now to a further sequence:
Exercise: Return reported apparent KD of MS2 coat protein; argument: GGAAAGAGGUUAGGAUAUGCAUGUUUGGGACAUGAGGAUCACCCAUGUAAUAGAAGAAAUCUACAGUAGAAGGGACAAGGAAGG [AK SSNG2-V2-6.1] (Eterna round: R96, puzzle: Same State NG 2)
Key: 0.17
